Data origin: PubChem BioAssay (NCI)

Test system: UO-31 renal
assayName: NCI tumour cell line growth inhibition, 48 h
endpointName: TGI

Record excerpt, results attached:
Fc1cnccc1-c1nc2ccc3[nH]ncc3c2c2c1CCCC2	8.04 µM
C[C@@H](NC(=O)Nc1cccc(C(=O)Nc2cc(C(C)(C)C)ccc2C(=O)O)n1)c1ccccc1	> 100 µM

Query: Bench note: what TGI did FC(F)(F)c1ccc(-c2cnc(-c3nn[nH]n3)nc2NC2CCCCCC2)cc1 show?
Response: > 10 µM

Query: Continue with O=c1c2cc(F)ccc2sc2c(NCCCNCCO)nc3ccc(F)cc3c12
Response: 2.37 µM

Query: Continue with COc1cc(CCNC2=CC(=O)c3ncccc3C2=O)ccc1O
Response: 17.3 µM

Query: Continue with COc1cc2nc(NC3CCC3)nc(NC3CCN(C(C)C)CC3)c2cc1OC
Response: 2.78 µM

Query: Continue with Cc1ccc(CNc2ccc(Cl)cc2NCc2ccc(C)c(O)c2)cc1O
Response: 11.7 µM

----------
Test system: SK-MEL-2 melanoma
assayName: NCI tumour cell line growth inhibition, 48 h
endpointName: TGI

Nc1nc(N)c2nc(CNc3ccc(C(=O)NC(CCC(=O)O)C(=O)O)cc3)cnc2n1 (stereo not given)	> 100 µM
CC(=O)OCC1OC(NC(=S)Nn2c(-c3ccccc3)nc3ccccc3c2=O)C(OC(C)=O)C(OC(C)=O)C1OC(C)=O (stereo not given)	68.3 µM
COc1cccc(O)c1-c1cc(=O)c2c(O)c(OC)c(OC)c(OC)c2o1	52.4 µM

Query: Bench note: what TGI did COc1cnc2c(c1)C(=O)c1c-2n(CCCN2CCNCC2)c(=O)c2cc(F)ccc12 show?
Response: 3.37 µM

Query: Continue with CC1=C(C(N)=O)C(c2ccncc2)C(C#N)C(=O)N1 (stereo not given)
Response: > 100 µM

----------
Test system: UACC-257 melanoma
assayName: NCI tumour cell line growth inhibition, 48 h
Recorded TGI for the following molecules
State just the number; it will be interpreted in µM.

Record excerpt, results attached:
COC(=O)N1C=Cc2c(c(C)c3c([nH]c4ccccc43)c2C)C1C (centres undefined)	35
COc1cccc(-c2cc(-c3ccc(Nc4nc(Nc5ccc(Cl)cc5)nc(Nc5ccc(Cl)cc5)n4)cc3)nc(N)c2C#N)c1	4.8
O=P(c1ccccc1)(c1ccccc1)C1CC=C2CCCCCC2C1 (centres undefined)	68.5

Field: next molecule
Query: Bench note: what TGI did CCOc1ccc(-c2nc3ccc(-c4nc5ccc(N6CCN(C)CC6)cc5[nH]4)cc3[nH]2)cc1OCC show?
Response: 4.76

----------
System: OVCAR-5 ovarian
assayName: NCI tumour cell line growth inhibition, 48 h
endpointName: TGI

C=C(CN1CCc2ccccc2C1)c1ccc(C(=O)Nc2cccc(N)c2)cc1	> 100 µM
COC(=O)C(Cc1ccc2c(c1)OCO2)(NC(=O)c1ccccc1)P(=O)(OC)OC (stereo not given)	> 100 µM

Query: Which TGI is reported with OVCAR-5 ovarian for this entry: O=[N+]([O-])c1cccc(-c2ccc([C@H]3CC(c4ccc(Cl)cc4)=NN3)o2)c1 ?
Response: > 100 µM

Query: Continue with CC(=O)OC1=C(c2ccccc2)S(=O)(=O)c2ccccc21
Response: > 100 µM

Query: Continue with CCCCP1(=O)C=CC(Cl)=C(C)C1 (stereo not given)
Response: > 100 µM

Query: Continue with CCCCCCCCCCCCNC(=O)N[C@H](C(=O)N[C@H]1/C=C/OCCNC(=O)/C=C/[C@H](C(C)C)NC1=O)C(C)C
Response: > 92.7 µM

----------
System: HOP-62 NSCLC
assayName: NCI tumour cell line growth inhibition, 48 h
endpointName: GI50

Record excerpt, results attached:
CC1(C)CCC(c2ccc(Cl)cc2)=C(CN2CCN(c3ccc(C(=O)NS(=O)(=O)c4ccc(N[C@H](CCN5CCOCC5)CSc5ccccc5)c(S(=O)(=O)C(F)(F)F)c4)cc3)CC2)C1	1.73 µM
CC(=O)Nc1ccc(/C=C/C(=O)c2sc(-n3nc(-c4ccccc4)cc3-c3ccccc3)nc2C)cc1	> 100 µM
N#CSc1c[nH]c2cccc(/C=C/C(=O)/C=C(O)/C=C/c3cccc4[nH]cc(SC#N)c34)c12	1.15 µM
N#CCC1CCN(c2nc(Nc3ccc(N4CCC(O)CC4)cc3)c3c(=O)[nH]ncc3n2)CC1	0.801 µM

Query: Bench note: what GI50 did CNC(=S)N/N=C/CSC/C=N/NC(=S)NC show?
Response: > 100 µM

Query: Continue with COc1cc(-c2nn(-c3cccc(NC(=O)NCCNC(=O)c4ccccc4)c3)cc2-c2ccncc2)ccc1Cl
Response: 3.95 µM

Query: Continue with COc1cccc(-c2cc(-c3ccc(Nc4nc(Nc5ccc(Cl)cc5)nc(Nc5ccc(Cl)cc5)n4)cc3)nc(N)c2C#N)c1
Response: 21.1 µM

Query: Continue with Cc1cc(C)c(CNC(=O)c2cc(Cl)c3c(c2C)O[C@@](C)(C2CCC(N(C)C)CC2)O3)c(=O)[nH]1 (stereo partly drawn)
Response: > 100 µM

----------
System: SW-620 colon
assayName: NCI tumour cell line growth inhibition, 48 h; in the data active = GI50 below about 0.43 µM; inactive = the rest
Choose the fitting class; nothing outside 1 = active, -1 = inactive is accepted.

A selection of reference data follows.
Nc1nc(-c2ccccn2)c(-c2ccc3ncccc3n2)s1	-1
COc1cc(F)c(F)c(F)c1C(=O)c1cnc(NC2CCN(S(C)(=O)=O)CC2)nc1N	1
FC(F)(F)c1ccc(-c2cnc(-c3nn[nH]n3)nc2NC2CCCCCC2)cc1	-1
N=C(N)c1ccc(-c2ccc(-c3cccs3)s2)cc1F	-1
CC1(C)CCC(c2ccc(Cl)cc2)=C(CN2CCN(c3ccc(C(=O)NS(=O)(=O)c4ccc(N[C@H](CCN5CCOCC5)CSc5ccccc5)c(S(=O)(=O)C(F)(F)F)c4)cc3)CC2)C1	-1
O=C(c1ccco1)c1c(C(F)(F)F)n([O-])c2cc(Cl)c(Cl)cc2[n+]1=O	-1
CC(=O)Nc1ccc(/C=C/C(=O)c2sc(-n3nc(-c4ccccc4)cc3-c3ccccc3)nc2C)cc1	-1
C=C(CN1CCc2ccccc2C1)c1ccc(C(=O)Nc2cccc(N)c2)cc1	-1
CCC[CH2][Sn]1([CH2]CCC)[O]C(=O)c2cccnc2[S]1	-1
C=C1C(=O)O[C@H]2[C@H]1CC/C(COC(=O)NCc1ccc(Cn3c(=O)sn(CCCI)c3=O)cc1)=C\CC[C@@]1(C)O[C@@H]21	-1

Query: # outcome recorded in this test, key = Cc1cc(C)c(CNC(=O)c2cc(Cl)c3c(c2C)O[C@@](C)(C2CCC(N(C)C)CC2)O3)c(=O)[nH]1 (some centres not stated)
Response: -1

Query: Continue with CN1CC[C@H](N(C)C(=O)N2CC(c3cc(F)ccc3F)=C[C@@]2(CO)c2ccccc2)[C@H](F)C1
Response: 1

Query: Continue with Nc1nc(N)c2nc(CNc3ccc(C(=O)NC(CCC(=O)O)C(=O)O)cc3)cnc2n1 (configuration not stated)
Response: 1

Query: Continue with CC(C)c1c(C(=O)Nc2ccccc2)c(-c2ccccc2)c(-c2ccc(F)cc2)n1CC[C@@H](O)C[C@@H](O)CC(=O)O
Response: -1

Query: Continue with CC1SC(c2ccc(OCc3ccccc3)cc2)N(NC(=O)C(O)(c2ccccc2)c2ccccc2)C1=O (configuration not stated)
Response: -1

Query: Continue with Cc1n[nH]c(C)c1-c1c(C)n[nH]c1C
Response: -1

Query: Continue with CC[C@@]12CC(C(=O)OC)=C3Nc4ccccc4[C@@]34CCN(C[C@H]3O[C@H]31)[C@@H]24
Response: -1

----------
System: UACC-257 melanoma
assayName: NCI tumour cell line growth inhibition, 48 h
Kind request: treat 4 µM as inclusive, so TGI at 4 µM or higher is Fulfilled, anything lower is Not fulfilled.

A selection of reference data follows.
CC[C@H]1CNC(=O)CC1CC(=O)OC (stereo partly drawn)	Fulfilled
Cc1ccc(Nc2nc3ccccc3nc2NS(=O)(=O)c2ccc(N)cc2)cc1	Fulfilled
COc1cccc(O)c1-c1cc(=O)c2c(O)c(OC)c(OC)c(OC)c2o1	Fulfilled
COCc1nc(C#N)c(N)o1	Fulfilled
CN(C)CCCn1c2c(c3ccc(N4CCNCC4)cc3c1=O)C(=O)c1ccccc1-2	Not fulfilled

Query: Decide: TGI of C=C1C(=O)O[C@H]2[C@H]1CC/C(COC(=O)NCc1ccc(Cn3c(=O)sn(CCCI)c3=O)cc1)=C\CC[C@@]1(C)O[C@@H]21 >= 4 µM?
Response: Not fulfilled

Query: Continue with COc1ccc2nc3cc(Cl)ccc3c(NCCCN(C)CCCNc3ccc4ncn5c6ccccc6c(=O)c3c45)c2c1
Response: Fulfilled

Query: Continue with O=C(c1ccco1)c1c(C(F)(F)F)n([O-])c2cc(Cl)c(Cl)cc2[n+]1=O
Response: Not fulfilled

----------
Test system: HCT-116 colon
assayName: NCI tumour cell line growth inhibition, 48 h
Where a SMILES comes first, the peptide text is derived from it. The star is where a group is joined. Boc = CC(C)(C)OC(=O)*; OtBu = CC(C)(C)O*
endpointName: TGI

Record excerpt, results attached:
CNC(=S)N/N=C/CSC/C=N/NC(=S)NC	> 100 µM
C[N+](C)(C)CC(=O)N/N=C\c1c(O)ccc2ccccc12	> 100 µM
CC(C)(C)OC(=O)CC(NC(=O)OC(C)(C)C)C(=O)NC(Cc1ccccc1)C(N)=O (centres undefined) (Boc-Asp(OtBu)-Phe-NH2; configuration not given here)	> 100 µM

Field: next compound
Query: Bench note: what TGI did O=C1C/C(=C\c2ccccc2)C(=O)c2ccccc2N1 show?
Response: 29.3 µM
